# assayMethodText: Tissue distribution of THP, DHC and protopine in rat tissues after gastric gavage administration (HPLC-UV, non-compartmental analysis)
# Format: in vivo, Wistar male rats
# conditionSet: male, Wistar, po, 26.1 mg/kg, rat liver, read-out: AUC0–24 h of DHC
# Method: The experimental protocol was approved by the University's Animal Ethics Committee. […] Rats had unlimited access to water. Standard food was given until 12 h before the experiments. Rhizoma Corydalis was processed according to Pharmacopoeia of Chinese Medicine and National Guideline of Traditional Chinese Medicinal Plants Processing. Briefly, fresh Rhizoma Corydalis was boiled in water till the pith turn light brown color. Cooked rhizome was sliced into pieces (4 mm, diameter) and dried at 25 °C. […]
recordedMetric: AUC(0-t) (ng·h/mL)
Give just the numeric value; ng·h/mL need not be written.

Exam item: Please report AUC(0-t) for the following compound: COc1cc2c(cc1OC)-c1c(C)c3ccc(OC)c(OC)c3c[n+]1CC2 [DHC, dehydrocorydaline]
Marked response: 1570

====

# assayMethodText: Tissue distribution of THP, DHC and protopine in rat tissues after gastric gavage administration (HPLC-UV, non-compartmental analysis)
# Type: in vivo, Wistar male rats
# conditionSet: male, Wistar, po, 4.52 mg/kg, rat cerebellum, read-out: Cmax of protopine
recordedMetric: Cmax
Answer shape: numeric part, then the unit.

Exam item: Please report Cmax for the following compound: CN1CCc2cc3c(cc2C(=O)Cc2ccc4c(c2C1)OCO4)OCO3
Marked response: 1560 ng/mL

====

# assayMethodText: Tissue distribution of THP, DHC and protopine in rat tissues after gastric gavage administration (HPLC-UV, non-compartmental analysis)
# Type: in vivo, Wistar male rats
# conditionSet: male, Wistar, po, 6.45 mg/kg, rat lung, read-out: MRT of THP
# Protocol: The experimental protocol was approved by the University's Animal Ethics Committee. […] Rats had unlimited access to water. Standard food was given until 12 h before the experiments. Rhizoma Corydalis was processed according to Pharmacopoeia of Chinese Medicine and National Guideline of Traditional Chinese Medicinal Plants Processing. Briefly, fresh Rhizoma Corydalis was boiled in water till the pith turn light brown color. Cooked rhizome was sliced into pieces (4 mm, diameter) and dried at 25 °C. […]
recordedMetric: MRT (h)
Give just the numeric value; h need not be written.

Exam item: Please report MRT for the following compound: COc1cc2c(cc1OC)[C@@H]1Cc3ccc(OC)c(OC)c3CN1CC2 [THP, tetrahydropalmatine]
Marked response: 5.34

====

# assayMethodText: Tissue distribution of THP, DHC and protopine in rat tissues after gastric gavage administration (HPLC-UV, non-compartmental analysis)
# Assay type: in vivo, Wistar male rats
# conditionSet: male, Wistar, po, 6.45 mg/kg, rat spleen, read-out: AUC0–24 h of THP
recordedMetric: AUC(0-t) (ng·h/mL)
Give just the numeric value; ng·h/mL need not be written.

Exam item: Please report AUC(0-t) for the following compound: COc1cc2c(cc1OC)[C@@H]1Cc3ccc(OC)c(OC)c3CN1CC2 [THP, tetrahydropalmatine]
Marked response: 3270

====

# assayMethodText: Tissue distribution of THP, DHC and protopine in rat tissues after gastric gavage administration (HPLC-UV, non-compartmental analysis)
# Type: in vivo, Wistar male rats
# conditionSet: male, Wistar, po, 26.1 mg/kg, rat heart, read-out: Tmax of DHC
recordedMetric: Tmax
Answer shape: numeric part, then the unit.

Exam item: Please report Tmax for the following molecule: COc1cc2c(cc1OC)-c1c(C)c3ccc(OC)c(OC)c3c[n+]1CC2 [DHC, dehydrocorydaline]
Marked response: 15 min

====

# assayMethodText: Tissue distribution of THP, DHC and protopine in rat tissues after gastric gavage administration (HPLC-UV, non-compartmental analysis)
# Assay type: in vivo, Wistar male rats
# conditionSet: male, Wistar, po, 26.1 mg/kg, rat kidney, read-out: Cmax of DHC
recordedMetric: Cmax
Answer shape: numeric part, then the unit.

Exam item: Please report Cmax for the following compound: COc1cc2c(cc1OC)-c1c(C)c3ccc(OC)c(OC)c3c[n+]1CC2 [DHC, dehydrocorydaline]
Marked response: 310 ng/mL

====

# assayMethodText: Tissue distribution of THP, DHC and protopine in rat tissues after gastric gavage administration (HPLC-UV, non-compartmental analysis)
# Format: in vivo, Wistar male rats
# conditionSet: male, Wistar, po, 6.45 mg/kg, rat lung, read-out: Cmax of THP
# Protocol: The experimental protocol was approved by the University's Animal Ethics Committee. […] Rats had unlimited access to water. Standard food was given until 12 h before the experiments. Rhizoma Corydalis was processed according to Pharmacopoeia of Chinese Medicine and National Guideline of Traditional Chinese Medicinal Plants Processing. Briefly, fresh Rhizoma Corydalis was boiled in water till the pith turn light brown color. Cooked rhizome was sliced into pieces (4 mm, diameter) and dried at 25 °C. […]
recordedMetric: Cmax (µg/mL)
Give just the numeric value; µg/mL need not be written.

Exam item: Please report Cmax for the following compound: COc1cc2c(cc1OC)[C@@H]1Cc3ccc(OC)c(OC)c3CN1CC2 [THP, tetrahydropalmatine]
Marked response: 1.53

====

# assayMethodText: Tissue distribution of THP, DHC and protopine in rat tissues after gastric gavage administration (HPLC-UV, non-compartmental analysis)
# Assay type: in vivo, Wistar male rats
# conditionSet: male, Wistar, po, 26.1 mg/kg, rat lung, read-out: Cmax of DHC
recordedMetric: Cmax (ng/mL)
Give just the numeric value; ng/mL need not be written.

Exam item: Please report Cmax for the following compound: COc1cc2c(cc1OC)-c1c(C)c3ccc(OC)c(OC)c3c[n+]1CC2 [DHC, dehydrocorydaline]
Marked response: 370

====

# assayMethodText: Tissue distribution of THP, DHC and protopine in rat tissues after gastric gavage administration (HPLC-UV, non-compartmental analysis)
# Type: in vivo, Wistar male rats
# conditionSet: male, Wistar, po, 4.52 mg/kg, rat liver, read-out: MRT of protopine
recordedMetric: MRT (h)
Give just the numeric value; h need not be written.

Exam item: Please report MRT for the following molecule: CN1CCc2cc3c(cc2C(=O)Cc2ccc4c(c2C1)OCO4)OCO3
Marked response: 5.69

====

# assayMethodText: Tissue distribution of THP, DHC and protopine in rat tissues after gastric gavage administration (HPLC-UV, non-compartmental analysis)
# Type: in vivo, Wistar male rats
# conditionSet: male, Wistar, po, 26.1 mg/kg, rat lung, read-out: AUC0–24 h of DHC
recordedMetric: AUC(0-t) (ng·h/mL)
Give just the numeric value; ng·h/mL need not be written.

Exam item: Please report AUC(0-t) for the following compound: COc1cc2c(cc1OC)-c1c(C)c3ccc(OC)c(OC)c3c[n+]1CC2 [DHC, dehydrocorydaline]
Marked response: 570

====

# assayMethodText: Tissue distribution of THP, DHC and protopine in rat tissues after gastric gavage administration (HPLC-UV, non-compartmental analysis)
# Assay type: in vivo, Wistar male rats
# conditionSet: male, Wistar, diencephalon, po, 26.1 mg/kg, rat diencephalons, read-out: MRT of DHC
recordedMetric: MRT
Answer shape: numeric part, then the unit.

Exam item: Please report MRT for the following compound: COc1cc2c(cc1OC)-c1c(C)c3ccc(OC)c(OC)c3c[n+]1CC2 [DHC, dehydrocorydaline]
Marked response: 5.3 h

# credit: paper PMC6268586
